The reported measurements were obtained from paper PMC5333415.

- run description: Caco-2 cell permeability (AP to BL transport)
- Format: in vitro ADME, human
- test settings: human; Caco-2 monolayers, 10 μg/ml scutellarin, without IF; read-out: Papp, AP side to BL side
readout: Papp at 120 min, 10 μg/ml (nm/s)
Answer format: numeric, nm/s implied, no suffix.

Query: Tell me measured Papp at 120 min, 10 μg/ml for O=C(O)[C@H]1O[C@@H](Oc2cc3oc(-c4ccc(O)cc4)cc(=O)c3c(O)c2O)[C@H](O)[C@@H](O)[C@@H]1O [Scu, 4′,5,6-trihydroxyflavone-7-O-glucuronide] please.
Response: 3.2

* * *

- run description: Pharmacokinetics study in vivo, single oral dose
- test settings: male, Sprague-Dawley, rat, plasma, po, 40 mg/kg, rats, oral gavage, scutellarin dose 40 mg/kg, n = 6, mean ± SD, read-out: T1/2(α) (converted)
readout: half-life
Note: a bare number is incomplete; add the unit.

Query: Tell me measured half-life for O=C(O)[C@H]1O[C@@H](Oc2cc3oc(-c4ccc(O)cc4)cc(=O)c3c(O)c2O)[C@H](O)[C@@H](O)[C@@H]1O [Scu, 4′,5,6-trihydroxyflavone-7-O-glucuronide] please.
Response: 24.3 min
